# protocolSummary: Primary qHTS for inhibitors of nuclear receptor binding SET domain protein 2 (NSD2) in an isogenic RCH-ACV NSD2 p.E1099K mutant (9B) (AID 1645876); note: nearly all actives have a fitted effect of over 70% in size
# conditionLabel: RCH-ACV (leukaemia line) NSD2 E1099K (9B) viability, CellTiter-Glo, 72 h; series mostly up to 44.9 µM
Records with an inconclusive call do not appear. Active and inactive are the calls of the source. Calls come from the whole dose curve; as a rule, active = well fitted inhibition curve with a large enough effect; inconclusive = small, poorly fitted or top-dose-only effect; inactive = flat fitted curve, though single readings scatter. Numbered stars: 1 amine (or outer) side, 2 acyl side, 3 side chain; on linkers, the order of the positions; unused ones are H or OH. Bridge positions count the residues as written; N and C are the ends. Square brackets hold non-standard residues; d marks the D form. Peptide text beside a SMILES is read from it. I, II: the chains in the order shown. Actinocin(9to1) = Cc1c2oc3c(C)ccc(C(=O)[*:1])c3nc-2c(C(=O)[*:2])c(N)c1=O; NMeV = CN[C@H](C(=O)O)C(C)C; Sar = CNCC(=O)O
Output constraint: value belongs to t = active, f = inactive

[
  {
    "molecule": "O=S1(=O)c2cccc3cccc(c23)N1CCCN1CCN(c2ccc(F)cc2)CC1",
    "assignedClass": "f"
  },
  {
    "molecule": "O=C(OCC(O)CO)c1ccccc1Nc1ccnc2cc(Cl)ccc12 (stereo not given)",
    "assignedClass": "t"
  },
  {
    "molecule": "Cc1ccnc(NS(=O)(=O)c2ccc(N)cc2)n1",
    "assignedClass": "f"
  },
  {
    "molecule": "COc1cc2c(cc1OC)[C@@H]1CC(=O)[C@@H](CC(C)C)CN1CC2",
    "assignedClass": "f"
  },
  {
    "molecule": "CCCCCCC[N+](CC)(CC)CCCCc1ccc(Cl)cc1",
    "assignedClass": "t"
  }
]

IN: What outcome does the record of this test show for C=CCc1ccc(O)c(OC)c1 ?
OUT: f

IN: Can you handle Cc1c(C(N)=O)cc([N+](=O)[O-])cc1[N+](=O)[O-] next?
OUT: f

IN: Can you handle CN1[C@@H]2CC[C@H]1CC(OC(=O)c1c[nH]c3ccccc13)C2 (stereo not given in full) next?
OUT: f

IN: Can you handle Oc1c(I)cc(I)c2cccnc12 next?
OUT: t

IN: Can you handle NCCC(O)(P(=O)(O)O)P(=O)(O)O next?
OUT: f

IN: Can you handle C=C1C[C@H]2[C@@H]3C=C(C)C4=CC(=O)CC[C@]4(C)[C@H]3CC[C@]2(C)[C@@]1(OC(C)=O)C(C)=O next?
OUT: t

IN: Can you handle CCC(=O)c1c(O)cc(O)cc1O next?
OUT: f

IN: Can you handle Cc1c(F)c(N2CCNC(C)C2)cc2c1c(=O)c(C(=O)O)cn2C1CC1 (stereo not given) next?
OUT: f

IN: Can you handle O=C1c2ccccc2C(=O)C1c1ccccc1 next?
OUT: f

IN: Can you handle COc1ccc(C2C(=O)c3ccccc3C2=O)cc1 next?
OUT: f

IN: Can you handle Cc1c2oc3c(C)ccc(C(=O)N[C@@H]4C(=O)N[C@H](C(C)C)C(=O)N5CCC[C@H]5C(=O)N(C)CC(=O)N(C)[C@@H](C(C)C)C(=O)O[C@@H]4C)c3nc-2c(C(=O)N[C@@H]2C(=O)N[C@H](C(C)C)C(=O)N3CCC[C@H]3C(=O)N(C)CC(=O)N(C)[C@@H](C(C)C)C(=O)O[C@@H]2C)c(N)c1=O (I: T[dV]P[Sar][NMeV] / II: T[dV]P[Sar][NMeV]; ester I:1-I:C, II:1-II:C; linker I:N-II:N via Actinocin(9to1)) next?
OUT: f

IN: Can you handle C/C=C(/C(=C/C)c1ccc(O)cc1)c1ccc(O)cc1 next?
OUT: t

IN: Can you handle COCc1c(C(C)C)nc(C(C)C)c(/C=C/[C@@H](O)C[C@@H](O)CC(=O)O)c1-c1ccc(F)cc1 next?
OUT: t

IN: Can you handle COC(=O)[C@@H]1CC2=CC(=O)CC[C@]2(C)[C@@]23O[C@@H]2C[C@@]2(C)[C@@H](CC[C@@]24CCC(=O)O4)[C@H]13 next?
OUT: f

IN: Can you handle Cc1nc2n(c(=O)c1CCN1CCC(c3noc4cc(F)ccc34)CC1)CCC[C@H]2O next?
OUT: f

* * *

# Tested on: CP269
# protocolSummary: qHTS profiling for inhibitors of Plasmodium falciparum proliferation (AID 504749); note: nearly all actives have a fitted effect of over 60% in size
# conditionLabel: P. falciparum in erythrocytes, SYBR Green DNA, 72 h; series mostly up to 28.7 µM
Records with an inconclusive call do not appear. Calls of active or inactive are those of the source. Calls follow the shape of the dose curve; as a rule, active = well fitted inhibition curve with a large enough effect; inconclusive = small, poorly fitted or top-dose-only effect; inactive = flat fitted curve, though single readings scatter. Numbered stars: 1 amine (or outer) side, 2 acyl side, 3 side chain; on linkers, the order of the positions; unused ones are H or OH. Bridge positions count the residues as written; N and C are the ends. Square brackets hold non-standard residues; d marks the D form. Peptide text beside a SMILES is read from it. I, II: the chains in the order shown. Actinocin(9to1) = Cc1c2oc3c(C)ccc(C(=O)[*:1])c3nc-2c(C(=O)[*:2])c(N)c1=O; NMeV = CN[C@H](C(=O)O)C(C)C; Sar = CNCC(=O)O
Output constraint: value belongs to class 1 = active, class 0 = inactive

As a guide, the following entries are already answered.
[
  {
    "compound": "CN=C(NC#N)NCCSCc1csc(N=C(N)N)n1",
    "assignedClass": "class 0"
  },
  {
    "compound": "CC(C)(C)CC(C)(C)c1ccc(OCCOCC[N+](C)(C)Cc2ccccc2)cc1",
    "assignedClass": "class 1"
  },
  {
    "compound": "Cc1c2oc3c(C)ccc(C(=O)N[C@@H]4C(=O)N[C@H](C(C)C)C(=O)N5CCC[C@H]5C(=O)N(C)CC(=O)N(C)[C@@H](C(C)C)C(=O)O[C@@H]4C)c3nc-2c(C(=O)N[C@@H]2C(=O)N[C@H](C(C)C)C(=O)N3CCC[C@H]3C(=O)N(C)CC(=O)N(C)[C@@H](C(C)C)C(=O)O[C@@H]2C)c(N)c1=O (I: T[dV]P[Sar][NMeV] / II: T[dV]P[Sar][NMeV]; ester I:1-I:C, II:1-II:C; linker I:N-II:N via Actinocin(9to1))",
    "assignedClass": "class 1"
  },
  {
    "compound": "C=CCc1ccc(O)c(OC)c1",
    "assignedClass": "class 0"
  },
  {
    "compound": "COc1cc(NS(C)(=O)=O)ccc1Nc1c2ccccc2nc2ccccc12",
    "assignedClass": "class 1"
  },
  {
    "compound": "CN(C)/N=N/c1nc[nH]c1C(N)=O",
    "assignedClass": "class 0"
  }
]

IN: What outcome does the record of this test show for C[C@H](O)C(=O)Nc1c(I)c(C(=O)NC(CO)CO)c(I)c(C(=O)NC(CO)CO)c1I ?
OUT: class 0

* * *

# System: N140
# protocolSummary: qHTS profiling for inhibitors of Plasmodium falciparum proliferation (AID 504749); note: nearly all actives have a fitted effect of over 60% in size
# conditionLabel: P. falciparum in erythrocytes, SYBR Green DNA, 72 h; series mostly up to 28.7 µM
Inconclusive results are not listed. Activity calls are given as the source filed them. Calls come from the whole dose curve; as a rule, active = well fitted inhibition curve with a large enough effect; inconclusive = small, poorly fitted or top-dose-only effect; inactive = flat fitted curve, though single readings scatter.
Output constraint: value belongs to True (active), False (inactive)

As a guide, the following entries are already answered.
[
  {
    "molecule": "CC(C)COC(=O)OCN1C(=O)CN(CCN2CC(=O)N(COC(=O)OCC(C)C)C(=O)C2)CC1=O",
    "experimentalTarget": "N140",
    "assignedClass": "False"
  },
  {
    "molecule": "CN1C(CCl)Nc2cc(Cl)c(S(N)(=O)=O)cc2S1(=O)=O (stereo unspecified)",
    "experimentalTarget": "N140",
    "assignedClass": "False"
  },
  {
    "molecule": "Nc1ccc(C(=O)O)cc1",
    "experimentalTarget": "N140",
    "assignedClass": "False"
  },
  {
    "molecule": "CC(C)(Oc1ccc(Cl)cc1)C(=O)O",
    "experimentalTarget": "N140",
    "assignedClass": "False"
  },
  {
    "molecule": "CC/C(=C(/CC)c1ccc(O)cc1)c1ccc(O)cc1",
    "experimentalTarget": "N140",
    "assignedClass": "False"
  }
]

IN: What outcome does the record of this test show for CCOc1ccc2nc3cc(N)ccc3c(N)c2c1 ?
OUT: True

IN: Can you handle CC1=C(C(=O)OC(C)C)C(c2cccc([N+](=O)[O-])c2)C(C(=O)OC2CN(C(c3ccccc3)c3ccccc3)C2)=C(N)N1 (stereo unspecified) next?
OUT: True

IN: Can you handle COc1c(C)c2c(c(O)c1C/C=C(\C)CCC(=O)O)C(=O)OC2 next?
OUT: True

* * *

# protocolSummary: Cell Viability - LYMP1-003 - Assay at 40 hr (AID 964); note: nearly all actives have a fitted effect of over 60% in size; note: potency is the fitted concentration of half-maximal effect
# conditionLabel: LYMP1-003 lymphoblastoid viability; series mostly up to 92.2 µM
Records with an inconclusive call do not appear. Calls of active or inactive are those of the source. Calls follow the shape of the dose curve; as a rule, active = well fitted cell-killing curve with a large enough effect; inconclusive = small, poorly fitted or top-dose-only effect; inactive = flat fitted curve, though single readings scatter.
readoutType: Potency

Example entries begin here.
[
  {
    "compound": "COc1cccc2c1C(=O)c1c(O)c3c(c(O)c1C2=O)C[C@@](O)(C(=O)CO)C[C@@H]3O[C@H]1C[C@H](N)[C@H](O)[C@H](C)O1",
    "Potency": "0.398 µM (active)"
  },
  {
    "compound": "NC(=NCCCCCCN=C(N)/N=C(\\N)Nc1ccc(Cl)cc1)/N=C(\\N)Nc1ccc(Cl)cc1",
    "Potency": "31.6 µM (active)"
  },
  {
    "compound": "COc1cccc2c1C(=O)c1c(O)c3c(c(O)c1C2=O)C[C@@](O)(C(C)=O)C[C@@H]3O[C@H]1C[C@H](N)[C@H](O)[C@H](C)O1",
    "Potency": "0.398 µM (active)"
  },
  {
    "compound": "CC(C)(C)CC(C)(C)c1ccc(OCCOCC[N+](C)(C)Cc2ccccc2)cc1",
    "Potency": "31.6 µM (active)"
  },
  {
    "compound": "O=c1ccc2ccccc2o1",
    "Potency": "inactive"
  },
  {
    "compound": "CC(O)C(=O)O (centres undefined)",
    "Potency": "inactive"
  },
  {
    "compound": "CC(=O)Oc1ccc(C(c2ccc(OC(C)=O)cc2)c2ccccn2)cc1",
    "Potency": "inactive"
  },
  {
    "compound": "Oc1c(Cl)cc(Cl)cc1Sc1cc(Cl)cc(Cl)c1O",
    "Potency": "39.8 µM (active)"
  }
]

IN: May I ask what Potency has been recorded for Oc1ccc(O)cc1 ?
OUT: 12.6 µM (active)
